# assay_protocol: Wnt pathway potentiators raising nuclear beta-catenin – imaging, WNT3A-conditioned medium, mouse C2C12, NPC library, primary screen (AID 1117326); also: reference of the scale not given here
# stated_conditions: stimulation, at 2 µM, stronger effect = higher value
assay_readout: nuclear beta-catenin stimulation (%)

INSERT INTO measurements (compound, assay_readout, endpoint_result) VALUES
  ('COc1cc(C(=O)OCCCN2CCCN(CCCOC(=O)c3cc(OC)c(OC)c(OC)c3)CC2)cc(OC)c1OC', 'nuclear beta-catenin stimulation', 1.7),
  ('COC1=C(OC)C(=O)C(CCCCCCCCCCO)=C(C)C1=O', 'nuclear beta-catenin stimulation', -1.8),
  ('CCn1cc(C(=O)O)c(=O)c2cc3c(cc21)OCO3', 'nuclear beta-catenin stimulation', 0.8),
  ('O=C(O)c1cn(-c2ccc(F)cc2)c2cc(N3CCNCC3)c(F)cc2c1=O', 'nuclear beta-catenin stimulation', 2.8),
  ('C#C[C@]1(O)CC[C@H]2[C@@H]3CCc4cc(OC)ccc4[C@H]3CC[C@@]21C', 'nuclear beta-catenin stimulation', 0.6),
  ('C/C=C/c1ccc(OC)cc1', 'nuclear beta-catenin stimulation', 2.3),
  ('CCOc1cc(N)c(Cl)cc1C(=O)NCC1CN(Cc2ccc(F)cc2)CCO1 (stereo not drawn)', 'nuclear beta-catenin stimulation', 1.9),
  ('CCc1oc2ccccc2c1C(=O)c1cc(Br)c(O)c(Br)c1', 'nuclear beta-catenin stimulation', 4.6);
